# Tested on: K-562 leukemia
# Method Summary: NCI-60 one-dose screen, 48 h (100 = growth as untreated, 0 = no growth, -100 = all killed)
# Condition Label: 10 µM unless noted
This is part of a sample that, as a whole, favours compounds with a hit. Of some 83,000 tested, about 20% had one in any assay.
Readout: growth (%)

* O=C(/C=C/c1ccc(Cl)cc1)/C=C/c1cc2ccccc2[nH]c1=O | 10.1
* COc1ccc(C/C(C)=C(\c2ccc(OCCN3CCCCCC3)cc2)c2ccc(OC(=O)C3CCCCC3)cc2)cc1 | 9.51
* CN(CC(=O)N(Cc1ccc(C2CCCCC2)cc1)c1ccc(C(=O)NO)cc1)S(=O)(=O)c1c(F)c(F)c(F)c(F)c1F | 20.6
* COc1ccc(-n2c(C)nc3c(c(C)nn3-c3ccccc3)c2=O)cc1 | 8.9

Source: PubChem BioAssay (NCI)
